Assay: qHTS cell viability (CellTiter-Glo, 72 h; primary screen), control cell line
Format: cell-based, mouse
Conditions: mouse, NIH-3T3 cells (control cell line); 3T3, Log (M) -6.24494; read-out: Percent viability
measured_parameter: viability at 72 h, 0.569 µM
I'd appreciate it if you included the unit after the number.

Request: What does the data say about its viability at 72 h, 0.569 µM? Entry: COCCn1c2c([n+](Cc3cnccn3)c1C)C(=O)c1ccccc1C2=O [sepantronium bromide, reference compound]
Result: 104%

* * *

Test system: VN-MCC cell lines (MCC13, MCC26, UISO)
Experiment: qHTS cell viability, VN-MCC cell lines as a group (mean AUC, VN.MCC.avg)
Type: cell-based, human
Conditions: MIPE library, Control AUC minus VN-MCC AUC (therapeutic window), sheet S2E
Structures can show the parent of a compound that is named as a salt.
Would you mind labelling by Control-VN-MCC? At or over -7 is T, under is F.

Answered examples (2):
[[record]]
molecule = "COCC1(CO)C(=O)C2CCN1CC2 (centres unmarked)"
group_label = "F"

[[record]]
molecule = "CN(C)CC[C@H](CSc1ccccc1)Nc1ccc(S(=O)(=O)NC(=O)c2ccc(N3CCN(Cc4ccccc4-c4ccc(Cl)cc4)CC3)cc2)cc1[N+](=O)[O-]"
group_label = "F"


Next item in the queue.
Request: API: above_or_equal(metric=Control-VN-MCC, cutoff=-7) for item CC[C@@]1(O)C(=O)OCc2c1cc1n(c2=O)Cc2cc3c(CN(C)C)c(O)ccc3nc2-1 [Topotecan HCl]
Result: T

* * *

Experiment: qHTS cell viability (CellTiter-Glo, 72 h; primary screen), control cell line
Type: cell-based, human
Conditions: human, HACAT cells (control cell line); HACAT, Log (M) -5.2907; read-out: Percent viability
measured_parameter: viability at 72 h, 5.12 µM (%)
The reply should contain only the number, in %.

Request: Would you kindly share the measured viability at 72 h, 5.12 µM for COCCn1c2c([n+](Cc3cnccn3)c1C)C(=O)c1ccccc1C2=O [sepantronium bromide, reference compound] ?
Result: 18.9

* * *

System: HACAT cells
Assay: qHTS cell viability (CellTiter-Glo, 72 h; primary screen), control cell line
Type: cell-based, human
Where a name gives a salt, the structure may show the parent alone.
measured_parameter: HACAT_AUC
Just the number, please, no unit attached.

[[record]]
molecule = "CC(O)C(=O)O.CCOc1ccc2nc3cc(N)ccc3c(N)c2c1.O [Ethacridine lactate hydrate]"
assay_value = 492.059

[[record]]
molecule = "COc1cc(C[C@@H](C)N)c(OC)cc1C.Cl"
assay_value = 438.262

[[record]]
molecule = "CCC(=O)O[C@@H]1C=C2CCC3C(CCC4(C)C3CC[C@@H]4OC(=O)CC)C2CC1 (some centres unmarked) [Bolandiol dipropionate]"
assay_value = 443.174


Request: Quick one: HACAT_AUC of "CS(=O)(=O)Oc1ccc2c(NC(N)=O)c(C(=O)c3ccc(Cl)cc3Cl)oc2c1" ?
Result: 475.167

Request: Let us now turn to "O=c1cccc2n1C[C@@H]1CNC[C@H]2C1"
Result: 465.853

Request: What do you get for "CC(C)(O)/C=C/C(=O)[C@](C)(O)[C@H]1[C@H](O)C[C@@]2(C)[C@@H]3CC=C4[C@@H](C=C(O)C(=O)C4(C)C)[C@]3(C)C(=O)C[C@]12C" ?
Result: 326.184

Request: // next record "CN(C)C(=O)Nc1ccc(Cl)c(Cl)c1"
Result: 457.965

Request: What about this molecule? CCCCCCCCCCCC[N+](C)(C)CCOc1ccccc1 [Domiphen bromide]
Result: 409.601

Request: Please give the result for CC(C)(C)CC(C)(C)c1ccc(OCCOCC[N+](C)(C)Cc2ccccc2)cc1 [Benzethonium chloride] too.
Result: 436.332

Request: Same question for "CCC(=O)OC1(c2ccccc2)CCN(C)CC1.Cl" please.
Result: 483.91

Request: How about CC[C@H]1C[C@@H]2C[C@H]3c4[nH]c5ccc(OC)cc5c4CCN(C2)[C@@H]13.Cl [Ibogaine hydrochloride] ?
Result: 487.75

Request: Repeat for the following molecule: "N[C@@H](Cc1ccc(N(CCCl)CCCl)cc1)C(=O)O"
Result: 448.936

Request: And for CC[N+](CC)(CC)CCOc1ccc(/C=C/c2ccccc2)cc1 [Stilonium iodide] ?
Result: 372.384

Request: Try this molecule too: COc1ccc2c3c1O[C@H]1[C@@H](O)C=C[C@H]4[C@@H](C2)N(C)CC[C@@]341 [Codeine hydrochloride]
Result: 474.439

Request: Now this one: C[C@H](CN1CCOCC1)C(C(=O)N1CCCC1)(c1ccccc1)c1ccccc1.O=C(O)C(O)C(O)C(=O)O [Dextromoramide tartrate]
Result: 472.266

Request: Try this molecule next: C=CCC1([C@H](C)CCC)C(=O)NC(=O)NC1=O [S-(-)-Secobarbital]
Result: 491.817

Request: Quick one: "CN(C)CCc1c[nH]c2ccc(O)cc12"
Result: 494.192

* * *

Recorded Area under the dose-response curve (AUC) MCC13 Replicate 2 by entry
Tested on: MCC13 cells (VN-MCC)
Test: qHTS cell viability (CellTiter-Glo, 72 h; primary and follow-up small molecule screen)
Type: cell-based, human
Format: numeric value only, no unit, no commentary.

Some solved entries appear below for comparison.
[[record]]
substance_smiles = "COc1cccc2c1C(=O)c1c(O)c3c(c(O)c1C2=O)C[C@@](O)(C(C)=O)C[C@@H]3O[C@H]1C[C@H](N)[C@H](O)[C@H](C)O1"
target_or_test_system = "MCC13 cells (VN-MCC)"
assay_value = 316.0

[[record]]
substance_smiles = "O=C(/C=C/c1ccc(/C=C/C(=O)Nc2ccc(C3=NCCN3)cc2)cc1)Nc1ccc(C2=NCCN2)cc1"
target_or_test_system = "MCC13 cells (VN-MCC)"
assay_value = 474.1


Request: // query Area under the dose-response curve (AUC) MCC13 Replicate 2 value for entry "C[C@H]1O[C@@H](O[C@H]2[C@@H](O)C[C@H](O[C@H]3[C@@H](O)C[C@H](O[C@H]4CC[C@@]5(C)[C@H](CC[C@@H]6[C@@H]5CC[C@]5(C)[C@@H](C7=CC(=O)OC7)CC[C@]65O)C4)O[C@@H]3C)O[C@@H]2C)C[C@H](O)[C@@H]1O"
Result: 249.2

Request: Same for "O=c1cccc2n1C[C@@H]1CNC[C@H]2C1"
Result: 472.1

Request: Same for "O=C1Nc2cc(Br)ccc2/C1=C1/Nc2ccccc2/C1=N\O"
Result: 449.1

Request: Now try "CCC(=O)NC[C@H](Cc1ccc(OCCc2nc(-c3ccccc3)oc2C)cc1)N/C(C)=C\C(=O)c1ccc(C(F)(F)F)cc1" .
Result: 489.8

* * *

Test system: WAGA cells (VP-MCC)
Assay: qHTS cell viability (CellTiter-Glo, 72 h; primary and follow-up small molecule screen)
Type: cell-based, human
Details: WAGA, 72h, Log (M) -10.1077
measured_parameter: Percent viability (%)
Field: numeric (%). Do not append units.

Guide cases for Percent viability, answers given:
[[record]]
molecule = "CCn1cc(-c2ccnc3[nH]c(-c4cccc(CN(C)C)c4)cc23)c(-c2ccc(NC(=O)N(C)C)cc2)n1 [GSK-1070916A, reference compound]"
measured_parameter = "Percent viability"
unit_string = "%"
assay_value = 100.0

[[record]]
molecule = "Cc1cc(Nc2cc(N3CCN(C)CC3)nc(Sc3ccc(NC(=O)C4CC4)cc3)n2)[nH]n1 [Tozasertib, reference compound]"
measured_parameter = "Percent viability"
unit_string = "%"
assay_value = 100.0

[[record]]
molecule = "O=C(Nc1cccc(Cl)c1)Nc1ncc(CCNc2ncnc3ccsc23)s1 [SNS-314, reference compound]"
measured_parameter = "Percent viability"
unit_string = "%"
assay_value = 100.0


Request: Fill blank: measured Percent viability of the molecule CCS(=O)(=O)c1cccc(-c2cc(C(=O)NC3CCN(C)CC3)c(C)c3[nH]c4ncc(C)cc4c23)c1 [TAK-901, reference compound] is ____.
Result: 123.7

* * *

System: MCC cell lines (WAGA, MKL-1, MKL-2, MCC13, MCC26, UISO)
Assay: qHTS cell viability, all six MCC cell lines as a group (mean AUC, MCC.avg)
Type: cell-based, human
Structures can show the parent of a compound that is named as a salt.
Criterion: MCC_Avg_AUC strictly under 400. Met: Fulfilled. Not met: Not fulfilled.

[[record]]
molecule = "CCCCCCCCCCCC[N+](C)(C)CCOc1ccccc1 [Domiphen bromide]"
target_or_test_system = "MCC cell lines (WAGA, MKL-1, MKL-2, MCC13, MCC26, UISO)"
group_label = "Fulfilled"

[[record]]
molecule = "Cc1ccc([N+](=O)[O-])[c]2c1[O][Hg]2"
target_or_test_system = "MCC cell lines (WAGA, MKL-1, MKL-2, MCC13, MCC26, UISO)"
group_label = "Fulfilled"

[[record]]
molecule = "CCN(CC)CCc1c[nH]c2ccccc12.O=C(O)/C=C/C(=O)O [N,N-Diethyltryptamine fumarate]"
target_or_test_system = "MCC cell lines (WAGA, MKL-1, MKL-2, MCC13, MCC26, UISO)"
group_label = "Not fulfilled"

[[record]]
molecule = "COc1ccc2c3c1O[C@H]1[C@@H](O)C=C[C@H]4[C@@H](C2)N(C)CC[C@@]341 [Codeine hydrochloride]"
target_or_test_system = "MCC cell lines (WAGA, MKL-1, MKL-2, MCC13, MCC26, UISO)"
group_label = "Fulfilled"

[[record]]
molecule = "CCC(=O)O[C@@H]1C=C2CCC3C(CCC4(C)C3CC[C@@H]4OC(=O)CC)C2CC1 (some centres unmarked) [Bolandiol dipropionate]"
target_or_test_system = "MCC cell lines (WAGA, MKL-1, MKL-2, MCC13, MCC26, UISO)"
group_label = "Not fulfilled"

[[record]]
molecule = "C#CCN(C)[C@H](C)Cc1ccccc1 [Selegiline hydrochloride]"
target_or_test_system = "MCC cell lines (WAGA, MKL-1, MKL-2, MCC13, MCC26, UISO)"
group_label = "Not fulfilled"

[[record]]
molecule = "CN(C)CCc1c[nH]c2ccc(O)cc12"
target_or_test_system = "MCC cell lines (WAGA, MKL-1, MKL-2, MCC13, MCC26, UISO)"
group_label = "Not fulfilled"

[[record]]
molecule = "C[C@H](CN1CCOCC1)C(C(=O)N1CCCC1)(c1ccccc1)c1ccccc1.O=C(O)C(O)C(O)C(=O)O [Dextromoramide tartrate]"
target_or_test_system = "MCC cell lines (WAGA, MKL-1, MKL-2, MCC13, MCC26, UISO)"
group_label = "Not fulfilled"


Request: Does this molecule meet the criterion MCC_Avg_AUC < 400? CC[C@H]1C[C@@H]2C[C@H]3c4[nH]c5ccc(OC)cc5c4CCN(C2)[C@@H]13.Cl [Ibogaine hydrochloride]
Result: Not fulfilled

Request: And what about the molecule CC[N+](CC)(CC)CCOc1ccc(/C=C/c2ccccc2)cc1 [Stilonium iodide] ?
Result: Fulfilled

Request: And then "CC(C)(O)/C=C/C(=O)[C@](C)(O)[C@H]1[C@H](O)C[C@@]2(C)[C@@H]3CC=C4[C@@H](C=C(O)C(=O)C4(C)C)[C@]3(C)C(=O)C[C@]12C" , what is it?
Result: Fulfilled

Request: Also check "COc1cc(C[C@@H](C)N)c(OC)cc1C.Cl"
Result: Fulfilled

Request: Next molecule: CC(Cc1ccccc1)NCCn1cnc2c1c(=O)n(C)c(=O)n2C (centres unmarked) [Fenethylline hydrochloride]
Result: Not fulfilled

Request: Another molecule: C=CCC1([C@H](C)CCC)C(=O)NC(=O)NC1=O [S-(-)-Secobarbital]
Result: Not fulfilled

Request: How about "CCOc1cc(N2CCC(O)CC2)ccc1Nc1ncc2c(n1)N(C)c1ccccc1C(=O)N2C" ?
Result: Not fulfilled

Request: Next molecule: CCCN(CCC)CCc1c[nH]c2ccccc12.Cl [N,N-Dipropyltryptamine hydrochloride]
Result: Not fulfilled

Request: Repeat for the following molecule: COc1cc(NC(C)CCCN)c2ncccc2c1 (centres unmarked) [Primaquine diphosphate]
Result: Not fulfilled
